Numbers sourced from patent US6855730B2.

Provide the recorded IC50 for the entries that follow.
# tested.system: EGFR (Homo sapiens)
# Sequence (P00533 25-1210): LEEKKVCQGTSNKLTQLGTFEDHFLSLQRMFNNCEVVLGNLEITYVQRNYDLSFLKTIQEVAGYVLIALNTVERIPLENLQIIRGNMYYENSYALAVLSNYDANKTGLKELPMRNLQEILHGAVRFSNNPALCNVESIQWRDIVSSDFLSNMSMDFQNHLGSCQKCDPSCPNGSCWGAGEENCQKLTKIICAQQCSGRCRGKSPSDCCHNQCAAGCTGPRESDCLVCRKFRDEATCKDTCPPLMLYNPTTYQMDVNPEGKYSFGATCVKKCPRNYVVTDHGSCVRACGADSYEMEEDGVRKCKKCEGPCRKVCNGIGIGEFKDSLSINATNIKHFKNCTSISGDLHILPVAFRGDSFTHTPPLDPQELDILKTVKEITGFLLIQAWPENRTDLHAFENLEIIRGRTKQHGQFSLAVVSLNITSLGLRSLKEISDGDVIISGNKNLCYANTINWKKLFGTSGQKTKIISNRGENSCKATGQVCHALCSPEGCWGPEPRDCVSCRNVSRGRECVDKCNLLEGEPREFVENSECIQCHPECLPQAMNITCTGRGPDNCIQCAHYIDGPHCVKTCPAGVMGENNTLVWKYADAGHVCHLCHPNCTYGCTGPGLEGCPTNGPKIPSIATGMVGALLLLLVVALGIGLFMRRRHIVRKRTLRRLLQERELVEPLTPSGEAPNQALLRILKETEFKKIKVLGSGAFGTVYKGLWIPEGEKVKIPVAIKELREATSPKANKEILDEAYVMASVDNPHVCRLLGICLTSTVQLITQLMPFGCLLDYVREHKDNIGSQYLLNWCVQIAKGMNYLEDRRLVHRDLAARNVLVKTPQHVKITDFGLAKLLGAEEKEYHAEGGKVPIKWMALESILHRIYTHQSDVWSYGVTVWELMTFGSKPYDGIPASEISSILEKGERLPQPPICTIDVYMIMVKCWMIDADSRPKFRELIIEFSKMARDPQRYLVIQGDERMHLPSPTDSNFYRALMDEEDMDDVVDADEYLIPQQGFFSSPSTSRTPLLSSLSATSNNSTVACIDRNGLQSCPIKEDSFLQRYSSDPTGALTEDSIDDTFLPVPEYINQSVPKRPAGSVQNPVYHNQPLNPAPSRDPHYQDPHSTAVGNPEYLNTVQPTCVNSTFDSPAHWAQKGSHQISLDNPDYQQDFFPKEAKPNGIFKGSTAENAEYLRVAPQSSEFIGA
# experiment.notes: EGFR assay (cellular ELISA, NIH 3T3/C7 cells)
# Assay type: cell-based
# Parameters: expressed in transfected cells; host or cells: NIH 3T3/C7
# test.parameters: read-out: cell EGF IC50
# Protocol: EGF Receptor kinase activity in cells genetically engineered to express human EGF-R can be measured as described below: Materials and Reagents. • a. […] 05-101 (UBI) (a monoclonal antibody recognizing an EGFR extracellular domain). • c. Anti-phosphotyosine antibody (anti-Ptyr) (polyclonal). • d. […] Assay Procedures. • 1. […] The maximal phosphotyrosine signal is determined by subtracting the value of the negative controls from the positive controls. […]

State recorded IC50 for all listed compounds.
1. COc1c(C)cc(/C=C2/C(=O)Nc3ncccc32)cc1C [Example 56]
2. COc1ccc(/C=C2\C(=O)Nc3cccc(C)c32)cc1C1CCCC1 [Example 48]

Result:
1. > 100 µM
2. > 100 µM

###

# tested.system: chimeric receptor containing the EGFR extracellular domain and intracellular HER2 kinase domain (Homo sapiens)
# Construct: fused on or other part: EGFR ectodomain + HER2 intracellular part, ATP-site indolinones: HER2's kinase
# Sequence (P04626 720-1255 limits assumed, change not shown): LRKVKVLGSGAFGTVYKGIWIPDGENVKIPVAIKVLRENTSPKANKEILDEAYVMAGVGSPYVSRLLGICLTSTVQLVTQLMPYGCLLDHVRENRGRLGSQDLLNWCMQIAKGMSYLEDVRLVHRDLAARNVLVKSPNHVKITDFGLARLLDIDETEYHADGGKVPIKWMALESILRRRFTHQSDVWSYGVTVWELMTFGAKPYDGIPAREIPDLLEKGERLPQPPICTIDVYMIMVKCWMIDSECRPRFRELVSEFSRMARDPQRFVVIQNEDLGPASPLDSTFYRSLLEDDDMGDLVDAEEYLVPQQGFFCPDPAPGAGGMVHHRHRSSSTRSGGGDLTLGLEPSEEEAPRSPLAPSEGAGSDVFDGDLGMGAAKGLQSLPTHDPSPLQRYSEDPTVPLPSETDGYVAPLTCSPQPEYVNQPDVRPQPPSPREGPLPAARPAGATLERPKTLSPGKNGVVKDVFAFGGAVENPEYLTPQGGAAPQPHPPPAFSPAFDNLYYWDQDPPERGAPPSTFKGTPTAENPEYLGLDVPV
# experiment.notes: EGF Receptor-HER2 chimeric receptor assay in whole cells (ELISA)
# test.parameters: read-out: HER-2 kinase IC50
endpoint.name: IC50

{"columns": ["compound", "IC50"],
 "data": [
  ["Cc1cccc2c1/C(=C/c1ccc3c(c1)CCO3)C(=O)N2 [Example 69]", "> 100 µM"],
  ["CCOC(=O)c1c(C)[nH]c(/C=C2\\C(=O)Nc3cc(-c4ccc(F)cc4)ccc32)c1CCC(=O)O [Example 108]", "> 100 µM"],
  ["COc1ccc(/C=C2/C(=O)Nc3ccccc32)cc1-c1ccccc1 [Example 65]", "> 100 µM"],
  ["COc1ccc(/C=C2/C(=O)Nc3ccc(Br)cc32)cc1-c1ccccc1 [Example 13]", "> 100 µM"],
  ["COc1ccc(/C=C2/C(=O)Nc3ncccc32)cc1C1CCCCC1 [Example 72]", "> 100 µM"],
  ["COc1cccc(-c2cc(OC)c(OC)cc2/C=C2/C(=O)Nc3ccc(Cl)cc32)c1 [Example 61]", "> 100 µM"],
  ["COc1ccc(/C=C2/C(=O)Nc3ccccc32)cc1C1CCCCC1 [Example 12]", "> 100 µM"],
  ["COc1ccc(/C=C2/C(=O)Nc3ccc(Cl)cc32)cc1-c1cccs1 [Example 59]", "> 100 µM"]
]}

Request: Query: IC50; subject: CNS(=O)(=O)c1ccc2c(c1)C(=Cc1[nH]c3ccccc3c1C)C(=O)N2 (racemic) [Example 154]
Result: > 100 µM

###

# tested.system: Myc-GyrB-FGFR fusion protein (Homo sapiens, UniProt P11362)
# Sequence (P11362 478-767 limits assumed): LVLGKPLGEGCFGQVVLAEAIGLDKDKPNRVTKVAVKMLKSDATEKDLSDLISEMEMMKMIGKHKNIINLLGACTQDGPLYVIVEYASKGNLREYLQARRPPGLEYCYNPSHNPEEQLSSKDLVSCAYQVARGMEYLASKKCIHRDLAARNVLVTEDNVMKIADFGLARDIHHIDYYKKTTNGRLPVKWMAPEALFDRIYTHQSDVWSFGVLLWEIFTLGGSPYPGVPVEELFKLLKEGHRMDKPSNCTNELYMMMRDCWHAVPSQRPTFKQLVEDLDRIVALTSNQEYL
# experiment.notes: Biochemical FGFR assay (ELISA)
# test.parameters: read-out: bio fgfR1 IC50
pIC50: −log10 of the molar value.
Parameter threshold = 5. Response is T when pIC50 meets or exceeds it, else F.

{"columns": ["compound", "label.value"],
 "data": [
  ["CCOC(=O)c1[nH]c(/C=C2\\C(=O)Nc3cc(-c4ccccc4)ccc32)c(CCC(=O)O)c1C", "T"]
]}

Request: Assess whether reported pIC50 for O=C(O)CCc1ccccc1/C=C1/C(=O)Nc2ccccc21 sits at 5 or higher.
Result: F

Request: Given the entry Cc1c(/C=C2\C(=O)Nc3ccc(Br)cc32)[nH]c2ccccc12 , answer whether its pIC50 meets or surpasses 5.
Result: F

Request: Decide: is the reported value of pIC50 for NS(=O)(=O)c1ccc2c(c1)/C(=C/c1c[nH]c3ccccc13)C(=O)N2 equal to or greater than 5?
Result: T

Request: Test whether the compound CC(=O)c1ccc2c(c1)C(=Cc1[nH]c3ccccc3c1C)C(=O)N2 records pIC50 of 5 or higher.
Result: F

Request: Reported pIC50 at or above 5? COc1ccc(-c2ccc3c(c2)NC(=O)/C3=C\c2[nH]c3c(c2CCC(=O)O)CCCC3)cc1
Result: T

Request: For this compound, is measured pIC50 5 or higher? CNS(=O)(=O)c1ccc2c(c1)C(=Cc1[nH]c3ccccc3c1C)C(=O)N2 (racemic)
Result: F

Request: Does pIC50 meet or surpass 5 for CCOC(=O)c1[nH]c(/C=C2\C(=O)Nc3cc(Br)ccc32)c(CCC(=O)O)c1C ?
Result: T
